B1: PRKX (parent)
chain: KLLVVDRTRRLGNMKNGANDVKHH

Variants of: B1
Experiment: protein stability index of a GFP-peptide fusion (GPS, HEK-293T) (PSI 1-6); higher = more stable;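 further: lentivirally expressed fusions sorted by FACS into six bins by GFP to DsRed ratio, PSI derived from sequencing read proportions per bin multiplied by bin number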
Details: c terminus: a fixed tail appended
readout: protein stability index
Returns: the value as a bare number; no unit string appended.

Before answering, review these 10 worked examples.
[
  {
    "residue_codes": "KLLVVDRTRRFGNMKNGANDVKHH [L11F]",
    "endpoint_value": 2.93
  },
  {
    "residue_codes": "KLLVVCRTRRLGNMKNGANDVKHH [D6C]",
    "endpoint_value": 2.01
  },
  {
    "residue_codes": "KLLVVDHTRRLGNMKNGANDVKHH [R7H]",
    "endpoint_value": 3.03
  },
  {
    "residue_codes": "KLTVVDRTRRLGNMKNGANDVKHH [L3T]",
    "endpoint_value": 4.16
  },
  {
    "residue_codes": "KLLVVDRTRRLGNMGNGANDVKHH [K15G]",
    "endpoint_value": 3.38
  },
  {
    "residue_codes": "KLLYVDRTRRLGNMKNGANDVKHH [V4Y]",
    "endpoint_value": 3.32
  },
  {
    "residue_codes": "KLLVVDRTRRLGNMKNGARDVKHH [N19R]",
    "endpoint_value": 2.54
  },
  {
    "residue_codes": "KLLVVDRTRRLGNMKNGANEVKHH [D20E]",
    "endpoint_value": 3.01
  },
  {
    "residue_codes": "KLLVIDRTRRLGNMKNGANDVKHH [V5I]",
    "endpoint_value": 2.33
  },
  {
    "residue_codes": "KLLVVDRTRRLGNMKSGANDVKHH [N16S]",
    "endpoint_value": 3.27
  }
]

Fill in protein stability index for record KLLVVDRTRRLGNMRNGANDVKHH [K15R] 3.6

Fill in protein stability index for record KLLVADRTRRLGNMKNGANDVKHH [V5A] 3.74

Fill in protein stability index for record KLLVVDTTRRLGNMKNGANDVKHH [R7T] 3.18

Fill in protein stability index for record KLLVVDRTRRLGNYKNGANDVKHH [M14Y] 3.03

Fill in protein stability index for record KLLVVDRTRQLGNMKNGANDVKHH [R10Q] 3.65

Fill in protein stability index for record KLLVVDRTRRLGNMTNGANDVKHH [K15T] 2.78

Fill in protein stability index for record KLLVVDRTRVLGNMKNGANDVKHH [R10V] 3.08

Fill in protein stability index for record KLLVVDRDRRLGNMKNGANDVKHH [T8D] 3.46

Fill in protein stability index for record KLLVVDRTRRLGNMKAGANDVKHH [N16A] 2.54
